EXPERIMENT DESCRIPTION: protein stability index of a GFP-peptide fusion (yeast GPS) (PSI 1-4); higher = more stable; sorted into four equal gates, so the index is relative within each strain
TEST SETTINGS: doa10∆
OBSERVED PROPERTY: protein stability index
Write the number on its own, no unit after it.

(Q) I would be grateful if you could share the reported protein stability index for SKISQMAQNKTHIPQTN [YLR018C/POM34] .
(A) 1.83

(Q) Name the recorded protein stability index for ETNAKPFSFSSATSTTE [YLR335W/NUP2] .
(A) 2.18

(Q) So what's the measured protein stability index for this one? VSMVKRAIDSLIQKGYL [CDC53]
(A) 1.74

(Q) Data request, read-out protein stability index, for TKEVESNIITKSLVQYI [DIS3]
(A) 2.71

(Q) I have this sequence here, FYVPQARNVTFDSLRNF [GRR1] , and I need its recorded protein stability index.
(A) 2.04

(Q) For the sequence LKEERAIEPETFTQLVS [PUP3] , what protein stability index is on record?
(A) 2.5

(Q) Would you mind telling me what protein stability index value was observed for KILNIIKCSQSSHLSDN [POP5] ?
(A) 1.97

(Q) Which protein stability index is listed for KQGRIKNATEELLRLAN [CSN12] ?
(A) 3.15

(Q) Name the reported protein stability index value associated with the sequence SRTDAVRCKDCGHRILL [RPC10]
(A) 2.62

(Q) What protein stability index value was documented for this sequence, MSAAPVQDKDTLSNAER [GAL11] ?
(A) 3.6

(Q) Any idea what its protein stability index is? The sequence is RMKSITSTSQKIPSASI [SNF5]
(A) 3.2

(Q) Query (sequence): SMGSILLSFVLGVVFGR [YML031W/NDC1] ; field requested: protein stability index
(A) 2.39

(Q) Param item = ATNTFGSNQQSSTGGGL [YGR119C/NUP57] ; retrieve measured protein stability index.
(A) 2.89

(Q) Look up protein stability index for this sequence: ATAFNKTRGPFHFRAPS [RPL16A]
(A) 2.67

###

Can you tell me protein stability index for the items I'm about to list?
EXPERIMENT DESCRIPTION: protein stability index of a GFP-peptide fusion (yeast GPS) (PSI 1-4); higher = more stable; sorted into four equal gates, so the index is relative within each strain
TEST SETTINGS: san1∆
Number, no unit, nothing else.

(Q) # get_value(readout='protein stability index', item= ADQEQAKLIRSAIEHTT [RPO21] )
(A) 2.82

(Q) For NGCIFTLNPKTGHLFLK [PRP8] , what is its reported protein stability index?
(A) 2.98

(Q) Given NSKMPTRFPPAVFYTPK [PRP8] , state its recorded protein stability index.
(A) 2.94

(Q) Can you share its protein stability index? I mean this sequence: TVTDDARIFEFPKTTVA [RPL18A]
(A) 2.7

(Q) Using the record for PSVKRQKMAELEAARSE [PRP8] , report its protein stability index.
(A) 3.31

(Q) Would you mind telling me what protein stability index value was observed for ERQMNFLTNELIRLQME [SWI3] ?
(A) 3.22

(Q) If you can, please state the reported protein stability index value of RNNLPAKTFGASVRIFL [RPL33A] .
(A) 2.84

(Q) I would be grateful if you could share the reported protein stability index for DRVQQDSEDEDSMKDTT [YML031W/NDC1] .
(A) 3.26

(Q) // protein stability index lookup, key: IYEVDITVHAPLLPIVE [SNU114]
(A) 2.19

(Q) Suppose we examine the sequence RVLITQRHIAVGKQIVN [RPS9A] ; what protein stability index value has been reported?
(A) 2.83

(Q) Request the reported protein stability index associated with NVNMTVNTMGTGGQTID [MED6]
(A) 3.06

(Q) # get_value(readout='protein stability index', item= PMHSIMPNSSLQPFYSQ [DSN1] )
(A) 2.37

(Q) Quick one: protein stability index of SNSANVSSPESEKNKRQ [ITC1] ?
(A) 2.95

(Q) Which measured protein stability index value corresponds to EWDLYPQGFSSVERGRK [REC8] ?
(A) 3.44

(Q) Fill in the blank: the reported protein stability index of FTRPLFVLLEIEPVTKV [YCS4] is ____.
(A) 1.95

(Q) Value lookup for protein stability index; key = RGTLTKNLKHIDVTFTK [RPL9A]
(A) 3

(Q) // lookup protein stability index for YINGKATALANLRKSRG [RPO31]
(A) 2.81

(Q) Please look up its protein stability index: DQEIVIQQLHSVLNPFL [ISW2]
(A) 1.98

(Q) I would be grateful if you could share the reported protein stability index for NIKPVEQHHINNLKNSG [GAL11] .
(A) 2.36

(Q) What value of protein stability index has been recorded for this entry: NNESNKNNNGDEKNKNN [MED2]
(A) 3.33

(Q) Could you share which protein stability index value was measured for SKDIETLKKEWLKEYED [YIL149C/MLP2] ?
(A) 3.26

(Q) // returns reported protein stability index for input TIPLGGSVHKLPYAIAG [PRE3]
(A) 2.84

(Q) Report protein stability index for MAKRVADAQIQRETYDS [YLR335W/NUP2] please.
(A) 2.08

(Q) I'd like to know its protein stability index. The sequence in question is GAIDEALEEAKLSDNIS [YDL116W/NUP84]
(A) 3.41

(Q) Which measured protein stability index value corresponds to EEAKEESDDDMGFGLFD [RPP1A] ?
(A) 3.22

(Q) Requested read-out: protein stability index. Entry: IIMQADLALKMGVPIYG [FAS2]
(A) 1.79

(Q) What protein stability index value was documented for this sequence, KKKRKKKNKSAIDGIFG [RMP1] ?
(A) 2.81

(Q) Entry under review: IRGAVGNSEAIPGLSAG [RTT102] . Reported protein stability index?
(A) 3.26

(Q) Fill in the blank: the reported protein stability index of SMQTIAETIILSSAGKN [SRB5] is ____.
(A) 1.8

(Q) # protein stability index lookup, item NEHSTSYTFRSEKGLLS [FAS1]
(A) 2.7

From: the supplement of paper PMC9732359
